# Test system: Parabacteroides distasonis
# assay overview: growth AUC relative to DMSO control (median of replicates) (fraction); higher = more growth (less inhibition), active = hit call of the paper
# cond: 20 µM; 24 h
growth AUC vs 1: at or above is Condition met, below is Condition not met.

These recorded examples may help you get a feel for the data.
INPUT: Given CC#Cc1cc(C)nc(Nc2ccccc2)n1 , state whether its growth AUC is at least 1.
OUTPUT: Condition not met

INPUT: Param item: CN(C)C(CSC(N)=O)CSC(N)=O.Cl
OUTPUT: Condition met

INPUT: Param item: N#Cc1cc(I)c(O)c(I)c1
OUTPUT: Condition not met

INPUT: Param item: COP(=S)(OC)SCn1nnc2ccccc2c1=O
OUTPUT: Condition not met

Continuing:
INPUT: Given Nc1ccc(Cl)cc1 , state whether its growth AUC is at least 1.
OUTPUT: Condition met
